The reader will find reported Emax values listed item by item below.
Target: human GPR119 (Homo sapiens, UniProt Q8TDV5)
Construct: host or cells: HEK293-CRE-beta-lactamase
Assay: beta-lactamase reporter functional assay (hGPR119 HEK293-CRE beta-lactamase cells)
Assay type: cell-based
Details: percent of maximal activity relative to standard GPR119 agonist (WO2005121121) at 10 microM; one value per run; read-out: Intrinsic Activity* (B-lactamase)
Method: The assay for GPR119 agonists utilizes a cell-based (hGPR119 HEK293-CRE beta-lactamase) reporter construct where agonist activation of human GPR119 is coupled to beta-lactamase production via a cyclic AMP response element (CRE). GPR119 activity is then measured utilizing a FRET-enabled beta-lactamase substrate, CCF4-AM (Live Blazer FRET-B/G Loading kit, Invitrogen cat #K1027). […] Fluorescence was measured on an EnVision fluorimetric plate reader, excitation 405 nm, emission 460 nm/535 nm. […]
Sequence (Q8TDV5 whole entry): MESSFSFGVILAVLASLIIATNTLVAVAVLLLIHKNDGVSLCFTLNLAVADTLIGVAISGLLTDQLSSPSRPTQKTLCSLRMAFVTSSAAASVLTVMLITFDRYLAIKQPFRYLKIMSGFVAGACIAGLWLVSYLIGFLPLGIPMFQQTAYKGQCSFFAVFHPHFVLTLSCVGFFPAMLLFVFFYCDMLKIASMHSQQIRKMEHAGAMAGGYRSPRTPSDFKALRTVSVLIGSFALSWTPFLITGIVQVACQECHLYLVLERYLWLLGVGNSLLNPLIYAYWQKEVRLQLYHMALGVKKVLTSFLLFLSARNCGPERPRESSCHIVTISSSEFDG
property-name: Emax (%)

CC(C)OC(=O)N1CCC(n2ncc(COc3ccc(-n4cnnn4)cc3F)c2C#N)CC1 [Example 3]: 98
Cc1nc(-n2cncn2)ccc1OCc1cnn(C2CCN(C(=O)OC(C)C)CC2)c1C#N [Example 35]: 83
CC(C)OC(=O)N1CCC(n2ncc(COc3ccc(-n4cnnn4)cc3)c2C#N)CC1 [Example 4]: 97
Cc1ncccc1NCc1cnn(C2CCN(C(=O)OC(C)C)CC2)c1C#N [Example 6]: 31
CC(C)OC(=O)N1CCC(n2ncc(COc3ccc(-c4nnn(C)n4)cc3F)c2C#N)CC1 [Example 21]: 100
CC(C)OC(=O)N1CCC(n2ncc(COc3ccc(S(C)(=O)=O)cc3F)c2C#N)CC1 [Example 2]: 100
CC(C)OC(=O)N1CCC(n2ncc(C(C)Oc3ccc(S(C)(=O)=O)cc3F)c2C#N)CC1 (centres unmarked) [Example 27]: 102
COP(=O)(OC)c1ccc(OCc2cnn(C3CCN(C(=O)OC(C)C)CC3)c2C#N)c(F)c1 [Example 7]: 98

###

The reader will find reported pEC50 values listed item by item below.
Target: human GPR119 (Homo sapiens, UniProt Q8TDV5)
Construct: host or cells: U2OS
Test: beta-arrestin functional assay (DiscoverX PathHunter U2OS hGPR119 beta-arrestin cells)
Assay type: cell-based
Conditions: U2OS hGPR119 beta-arrestin cells; one value per run; read-out: Human B-arrestin Functional EC50
Sequence (Q8TDV5 whole entry): as above
Sequence (P32121 whole entry partner): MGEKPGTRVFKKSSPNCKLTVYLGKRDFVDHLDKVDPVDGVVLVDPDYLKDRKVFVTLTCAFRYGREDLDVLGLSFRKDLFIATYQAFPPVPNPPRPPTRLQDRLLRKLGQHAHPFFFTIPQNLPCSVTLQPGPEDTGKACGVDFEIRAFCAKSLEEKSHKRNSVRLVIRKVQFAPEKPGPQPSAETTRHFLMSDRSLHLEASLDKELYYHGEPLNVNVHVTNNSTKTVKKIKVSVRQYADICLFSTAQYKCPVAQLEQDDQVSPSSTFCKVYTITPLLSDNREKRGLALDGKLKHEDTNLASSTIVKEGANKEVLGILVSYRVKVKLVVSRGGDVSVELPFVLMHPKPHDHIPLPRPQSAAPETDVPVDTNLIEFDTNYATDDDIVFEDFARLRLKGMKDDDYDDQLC
pEC50: −log10 of the molar value.
property-name: pEC50

CC(C)OC(=O)N1CCC(n2ncc(COc3ccc(C#N)cc3F)c2C#N)CC1: 7.80
CC1(OC(=O)N2CCC(n3ncc(COc4cc(F)ccc4F)c3C#N)CC2)CC1: 6.66
CC1(OC(=O)N2CCC(n3ncc(COc4ccc(C(N)=O)cc4)c3C#N)CC2)CC1: 6.33
CC1(OC(=O)N2CCC(n3ncc(COc4ccc(C(N)=O)cc4F)c3C#N)CC2)CC1: 7.20
CC1(OC(=O)N2CCC(n3ncc(COc4c(F)ccc(F)c4F)c3C#N)CC2)CC1: 6.81
CC1(OC(=O)N2CCC(n3ncc(COc4ccc(C#N)cc4)c3C#N)CC2)CC1: 6.79
CC1(OC(=O)N2CCC(n3ncc(COc4cccc(F)c4F)c3C#N)CC2)CC1: 6.31
CC(C)OC(=O)N1CCC(n2ncc(COc3ccc(-n4cnnn4)cc3F)c2C#N)CC1: 8.40

###

Molecular target: human GPR119 (Homo sapiens, UniProt Q8TDV5)
Construct: host or cells: HEK293-CRE-beta-lactamase
Assay: cAMP HTRF functional assay (hGPR119 HEK-CRE beta-lactamase cells)
Type: cell-based
Settings: hGPR119 HEK-CRE beta-lactamase cells, HTRF cAMP; one value per run
The reader will find reported EC50 values listed item by item below.
property-name: EC50 (nM)

Cc1nc(S(C)(=O)=O)ccc1NCc1cnn(C2CCN(C(=O)OC(C)C)CC2)c1C#N: 1160
CC(C)OC(=O)N1CCC(n2ncc(C(C)Oc3ccc(S(C)(=O)=O)cc3F)c2C#N)CC1 (stereo not shown): 394
CC(C)OC(=O)N1CCC(n2ncc(COc3ccc(-c4nnn[nH]4)cc3F)c2C#N)CC1: 4550
CC1(OC(=O)N2CCC(n3ncc(COc4ccc(C(N)=O)c(F)c4)c3C#N)CC2)CC1: 254
